Test system: SF-539 CNS
Assay: NCI tumour cell line growth inhibition, 48 h; in the data active = GI50 below about 0.43 µM; inactive = the rest
Classes used: active, inactive

| compound | system_name | assigned_label |
| --- | --- | --- |
| COc1cccc2c1cc1c3c(cc4c(c32)OCO4)C(=O)N1 | SF-539 CNS | inactive |
| COc1ccc(C(=O)c2cc3c(N)c(C(=O)Nc4cccc(OC)c4)sc3nc2C)cc1 | SF-539 CNS | active |
| CN(C(=O)CNC(=O)/C=C/c1cccc(Cl)c1)C1CCS(=O)(=O)CC1 | SF-539 CNS | inactive |
| O=C(/C=C/c1ccc([N+](=O)[O-])cc1)c1cccc(Nc2nc(Nc3ccccc3)nc(Nc3ccccc3)n2)c1 | SF-539 CNS | inactive |
| Cc1c2ccncc2c(C)c2c1[nH]c1ccc(Cl)cc12 | SF-539 CNS | inactive |
| NS(=O)(=O)c1ccc(NC(=O)c2cccc(NC3=C(Cl)C(=O)N(Cc4ccccc4)C3=O)c2)cc1 | SF-539 CNS | inactive |
| COc1cc2c(cc1OCCCOc1ccc(-c3nc4ccc(N5CCN(C)CC5)cc4[nH]3)cc1)N=C[C@@H]1CCCN1C2=O | SF-539 CNS | active |
| COc1cc(/C=N/NC(=O)c2ccccc2Nc2cccc(C(F)(F)F)c2)cc(OC)c1OC | SF-539 CNS | inactive |
| COc1ccc(-c2n/c(=C\c3c(O)[nH]c4ccccc34)cc3c2=Nc2ccccc2-3)cc1 | SF-539 CNS | inactive |
| O=C(c1ccc2ccccc2c1)c1c(C(F)(F)F)n([O-])c2ccc(F)cc2[n+]1=O | SF-539 CNS | inactive |
| CCCCCCCCCCSC(=N)N | SF-539 CNS | inactive |
| C=CC(C)(O)CC/C=C(\CO)C(=O)OC1C(C)OC(O[C@](C)(C=C)CC/C=C(\CO)C(=O)O[C@H]2C[C@@]3(C(=O)OC4OC(CO)C(O)C(O)C4OC4OC(C)C(OC5OC(CO)C(O)C5O)C(OC5OC(CO)C(O)C(O)C5O)C4O)C(CC2(C)C)C2=CCC4[C@@]5(C)CC[C@H](OC6OC(COC7OC(C)C(O)C(O)C7OC7OCC(O)C(O)C7O)C(O)C(O)C6NC(C)=O)C(C)(C)C5CC[C@@]4(C)[C@]2(C)C[C@H]3O)C(O)C1O (some centres not stated) | SF-539 CNS | inactive |
| Cc1c(Cl)cccc1NC(=O)c1sc2nc3c(cc2c1N)CCCC3 | SF-539 CNS | active |
| CN=C(N)N/N=C(\C)c1ccc2c(c1)Cc1ccccc1-2 | SF-539 CNS | inactive |
| C=C(C)[C@@H]1CC[C@]2(CO)CC[C@]3(C)[C@H](CC[C@@H]4[C@@]5(C)CC[C@H](NCO)C(C)(C)[C@@H]5CC[C@]43C)[C@@H]12 | SF-539 CNS | inactive |
| O=C1/C(=C\c2ccccc2)C2OCC=C3CN4CCC56c7ccccc7N1C5C2C3CC46 (configuration not stated) | SF-539 CNS | inactive |
| CC(/C=N/N=C(N)N)=N\N=C(N)N | SF-539 CNS | inactive |

* * *

Measured TGI of individual entries
System: HS 578T breast
Experiment: NCI tumour cell line growth inhibition, 48 h
reported_endpoint: TGI

| molecule | measured |
| --- | --- |
| C/C(=N/O)c1ccc(Nc2cc(-n3ccnc3)c3ccccc3n2)cc1 | > 100 µM |
| C=C1CC2[C@H](C)C(=O)CCC2(C)C2=C1C1CCC(C(C)CCC(=C)C(C)C(=O)O)C1(C)CC2=O (some centres undefined) | > 100 µM |
| Nc1c(C(=O)Nc2cccc3ccccc23)sc2nc3c(cc12)C(=O)CCC3 | > 100 µM |
| C(#Cc1ccccc1)SC1=C(c2ccccc2)S/C(=C(\SC#Cc2ccccc2)c2ccccc2)S1 | > 100 µM |
| COC(=O)/C(=N\Nc1nnc(C)n1N)C(C#N)c1ccccc1 (centres undefined) | > 100 µM |
| O=C(/C=C/c1ccc([N+](=O)[O-])cc1)c1cccc(Nc2nc(Nc3ccccc3)nc(Nc3ccccc3)n2)c1 | 5.97 µM |
| O=c1[nH]c2ccc([N+](=O)[O-])cc2nc1/C=C(\O)c1ccccc1 | 8.93 µM |
| O=C(Nc1nc2ccccc2s1)c1cc(-c2ccc(F)cc2)n2nc(-c3ccccc3)cc2n1 | 8.64 µM |
| COc1ccc(C(=O)c2cc3c(N)c(C(=O)Nc4cccc(OC)c4)sc3nc2C)cc1 | > 100 µM |

* * *

Test system: HT29 colon
Assay: NCI tumour cell line growth inhibition, 48 h; in the data active = GI50 below about 0.43 µM; inactive = the rest
Outcomes: active, inactive

| smiles_record | assigned_label |
| --- | --- |
| CCCN1CCC=C(c2ccc(Nc3nc(Nc4ccccc4C(N)=O)c4cc[nH]c4n3)c(C)c2)C1 | active |
| CCN(CC)Cc1cc(Nc2c3ccccc3nc3cc(Cl)ccc23)ccc1O | inactive |
| Cc1c2ccncc2c(C)c2c1[nH]c1ccc(Cl)cc12 | inactive |
| COc1cc(Cn2c(-c3ccccc3)cc3c2-c2oncc2CC3)cc(OC)c1 | active |
| COc1ccc(-c2nc(C(=O)c3ccccc3)n(CC(=O)c3ccc(Cl)cc3)c2-c2ccc(OC)cc2)cc1 | inactive |
| Oc1ccc(Cl)cc1/C=N\NC(=S)N/N=C/c1cc(Cl)ccc1O | inactive |
| O=C(/C=C/c1ccc([N+](=O)[O-])cc1)c1cccc(Nc2nc(Nc3ccccc3)nc(Nc3ccccc3)n2)c1 | inactive |
| Cc1c(Cl)cccc1NC(=O)c1sc2nc3c(cc2c1N)CCCC3 | active |

* * *

System: NCI-H460 lung
Experiment: NCI tumour cell line growth inhibition, 48 h
reported_endpoint: TGI

| compound | measured |
| --- | --- |
| COc1cc(/C=N/NC2=NCCN2)ccc1O | > 100 µM |
| NS(=O)(=O)c1ccc(N=Nc2ccc(O)c(C(=O)O)c2)cc1 | > 100 µM |
| Cc1cc(Br)cc(C)c1NC(=O)C(=O)Nn1c(=S)[nH]c2ccccc2c1=O | > 100 µM |
| O=C(NOCCO)c1cc(CN2OCCCC2=O)c(F)c(F)c1Nc1ccc(I)cc1F | > 100 µM |
| N#CC(C(=O)CCCC(=O)Nc1ccc(Cl)cc1Cl)c1ccc(Cl)cc1 (stereo unspecified) | > 100 µM |
| N#Cc1nc(-c2cccc(-c3nc(C#N)c(N)o3)n2)oc1N | > 100 µM |
| COc1cc2ccc3ccncc3c2cc1OC | > 10 µM |
| O=C(/C=C/c1cccc2ccccc12)Nc1ncc(Cc2ccccc2)s1 | 5.19 µM |
| CC(C)N1C(C)[C@@H](c2ccccc2)O[P@]1(=O)CC1=CCCCC1 (stereo partly specified) | > 100 µM |
| CCOC(=O)c1c(C)n(Cc2ccccc2)c2c1cc1oc(=O)c(=O)n3cnc2c13 | > 50 µM |
| CN/N=C(\C(=O)Nc1ccc(C)c(C)c1)C(C(=O)OC)c1nc2ccc([N+](=O)[O-])cc2[nH]c1=O (stereo unspecified) | > 100 µM |

* * *

Tested on: PC-3 prostate
Assay: NCI tumour cell line growth inhibition, 48 h
reported_endpoint: TGI

| compound | reported_endpoint | measured |
| --- | --- | --- |
| CC(C)=NOC(=O)Nc1cccc2c1OCO2 | TGI | > 100 µM |
| COc1ccc(CNc2nc3ccccc3nc2C(=O)O)cc1 | TGI | > 100 µM |
| CN1CCN([C@H]2C[C@H]3[C@@H]4CC=C5C[C@@H](O)CC[C@]5(C)[C@H]4CC[C@]3(C)[C@H]2O)CC1 | TGI | > 86.6 µM |
| COc1ccc(-n2cnc3c(NC(Cc4ccccc4)C(=O)O)ncnc32)cc1 (stereo not given) | TGI | > 100 µM |
| C=C1C(=O)OC2C3OC(C)(CCC(O)C3COC(C)=O)CC(OC(=O)/C(=C/C)COC(C)=O)C12 (stereo not given) | TGI | 4.49 µM |
| Oc1ccc(Cl)cc1/C=N\NC(=S)N/N=C/c1cc(Cl)ccc1O | TGI | > 100 µM |
| Nc1c(C(=O)Nc2cccc3ccccc23)sc2nc3c(cc12)C(=O)CCC3 | TGI | > 48.5 µM |
| CSCCCNC(=O)[C@H](CSC)NC(=O)c1csc(CCNC(=O)[C@@H](NSc2ccccc2[N+](=O)[O-])C(C)O)n1 (stereo not given in full) | TGI | > 100 µM |
| COc1cc(/C=N/NC2=NCCN2)ccc1O | TGI | > 100 µM |
| Cn1cc(C2=C(c3cn(CCCCC(=N)N)c4ccccc34)C(=O)NC2=O)c2ccccc21 | TGI | > 25 µM |

* * *

System: NCI-H226 lung
Test: NCI tumour cell line growth inhibition, 48 h
Where a SMILES comes first, the peptide text is derived from it. The star is where a group is joined. Trt = c1ccc(C(c2ccccc2)(c2ccccc2)*)cc1; Cbz = O=C(OCc1ccccc1)*
Documented TGI across a set of compounds

| compound | TGI |
| --- | --- |
| O=c1[nH]cc(C(F)(C(F)(F)F)C(F)(F)F)c(=O)[nH]1 | > 100 µM |
| CN1CCC2(CC1)C(=NC1CCCCC1)NC(=O)N2c1ccccc1 | > 100 µM |
| C#CCOCn1cnc2ncnc(N)c21 | > 100 µM |
| C(#Cc1ccccc1)SC1=C(c2ccccc2)S/C(=C(\SC#Cc2ccccc2)c2ccccc2)S1 | > 100 µM |
| CCN(CC)Cc1cc(Nc2c3ccccc3nc3cc(Cl)ccc23)ccc1O | 3.23 µM |
| O=C(O)c1ccc(N/C(=C(/C(Cl)=C(Cl)Cl)[N+](=O)[O-])n2nnc3ccccc32)cc1 | > 100 µM |
| CCOC(=O)C1=C(C)N(Cc2ccccc2)C2(O)C=CC(=O)C3=C(O)c4ccccc4C(=O)C312 (centres undefined) | 54.4 µM |
| Cc1ccc(/C=N/NS(=O)(=O)c2ccccc2)c(C)c1 | > 100 µM |
| NNC(=O)C(O)C(O)C(=O)NN (centres undefined) | > 100 µM |
| COC(=O)C(CSC(c1ccccc1)(c1ccccc1)c1ccccc1)NC(=O)C(CC(N)=O)NC(=O)OCc1ccccc1 (stereo not drawn) (Cbz-Asn-Cys(Trt)-OMe; configuration not given here) | 22 µM |
| c1cc2c(cc1C1=NCCN1)c1cc(C3=NCCN3)ccc1n2CC1CCCCC1 | 48.7 µM |
| Clc1cc2nnn(C3CCCO3)c2cc1Cl (centres undefined) | > 100 µM |
| CCOC(C)OC1CC(n2cc(C)c(=O)[nH]c2=O)OC1CO (centres undefined) | > 100 µM |
| Cc1ccc2c(c1C)C(=O)/C(=C/c1cccc(C)c1C(=O)O)C2 | > 100 µM |
